Tested on: HeLa Kyoto;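 further: synchronized HeLa Kyoto cells (double thymidine block for G1/S, nocodazole release for mitosis), protein amounts in NP-40 versus SDS lysates quantified by mass spectrometry, three biological replicates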
protocolNotes: solubility change mitosis vs G1/S (difference of NP-40 vs SDS log2 ratios) (log2 ratio difference); higher = more soluble in mitosis
valueKind: solubility change mitosis (log2)
# respond with the number and nothing more

Query :: Recall and state the measured solubility change mitosis (log2) for MSDKPDMAEIEKFDKSKLKKTETQEKNPLPSKETIEQEKQAGES [TMSB4X] .
Result :: 0.302

Query :: Recall and state the measured solubility change mitosis (log2) for MAQEKMELDLEPDTSYGGTLRRSSSAPLIHGLSDLSQVFQPYTLRTRRNSTTIMSRHSLEEGLDMVNRETAHEREMQTAMQISQSWDESLSLSDSDFDKPEKLYSPKRIDFTPVSPAPSPTRGFGKMFVSSSGLPPSPVPSPRRFSRRSQSPVKCIRPSVLGPLKRKGEMETESQPKRLFQGTTNMLSPDAAQLSDLSSCSDILDGSSSSSGLSSDPLAKGSATAESPVACSNSCSSFILMDDLSPK [FAM122B] .
Result :: -0.79

Query :: Recall and state the measured solubility change mitosis (log2) for MTGQGQSASGSSAWSTVFRHVRYENLIAGVSGGVLSNLALHPLDLVKIRFAVSDGLELRPKYNGILHCLTTIWKLDGLRGLYQGVTPNIWGAGLSWGLYFFFYNAIKSYKTEGRAERLEATEYLVSAAEAGAMTLCITNPLWVTKTRLMLQYDAVVNSPHRQYKGMFDTLVKIYKYEGVRGLYKGFVPGLFGTSHGALQFMAYELLKLKYNQHINRLPEAQLSTVEYISVAALSKIFAVAATYPYQVVRARLQDQHMFYSGVIDVITKTWRKEGVGGFYKGIAPNLIRVTPACCITFVVYENVSHFLLDLREKRK [SLC25A32] .
Result :: -0.12

Query :: Recall and state the measured solubility change mitosis (log2) for MSDLEDDETPQLSAHALAALQEFYAEQKQQIEPGEDDKYNIGIIEENWQLSQFWYSQETALQLAQEAIAAVGEGGRIACVSAPSVYQKLRELCRENFSIYIFEYDKRFAMYGEEFIFYDYNNPLDLPERIAAHSFDIVIADPPYLSEECLRKTSETVKYLTRGKILLCTGAIMEEQAAELLGVKMCTFVPRHTRNLANEFRCYVNYDSGLDCGI [N6AMT2] .
Result :: 0.0973
